- System: CCRF-CEM leukemia
- ASSAY_TEXT: NCI tumour cell line growth inhibition, 48 h

- MOLECULE: "COc1ccc2c(=O)cc(C(Cl)(Cl)Cl)oc2c1"
  TARGET_DESC: "CCRF-CEM leukemia"
  GI50: "309 nM"
- MOLECULE: "C=C1CCC2C3(C)COC(c4ccccc4)OC3CCC2(C)C1/C=C/C1=CCOC1=O (configuration not stated)"
  TARGET_DESC: "CCRF-CEM leukemia"
  GI50: "1890 nM"
- MOLECULE: "O=C(c1ccccc1)C(CN1CCCCC1)c1ccccc1 (configuration not stated)"
  TARGET_DESC: "CCRF-CEM leukemia"
  GI50: "301 nM"
- MOLECULE: "[N-]=[N+]=NCCCCCC(=O)OC(C(=O)c1ccccc1)c1cccc(OCC(=O)NCCOCCOCCNC(=O)CCCC[C@@H]2SC[C@@H]3NC(=O)N[C@@H]32)c1 (some centres not stated)"
  TARGET_DESC: "CCRF-CEM leukemia"
  GI50: "52200 nM"
- MOLECULE: "O=C(Nc1ccc(-n2ccc3c(NC(=O)c4ccccc4)ncnc32)cc1)Nc1ccc(Cl)c(Cl)c1"
  TARGET_DESC: "CCRF-CEM leukemia"
  GI50: "987 nM"
- MOLECULE: "CCC(=C/[C@H](C)C/C=C/C(C)=C/[C@@H](C)C(=O)[C@@H](C)[C@H](O)[C@@H](C)CC)/C=C/[C@@H]1OC(=O)C=C[C@H]1C"
  TARGET_DESC: "CCRF-CEM leukemia"
  GI50: "20.1 nM"
- MOLECULE: "O=C(Nc1ccc(Cl)c(Cl)c1)Nc1c(Oc2ccc(Cl)c(Cl)c2)ccc(Cl)c1S(=O)(=O)O"
  TARGET_DESC: "CCRF-CEM leukemia"
  GI50: "4030 nM"
